# assay: Crystal size distribution (CSD) by laser diffraction (Mastersizer 2000, Fraunhofer model)
# Format: physicochemical
# assaySetup: Entry 2; antisolvent flow 45 l/h; 3-ketodesogestrel flow 0.4 l/h; Microdyn membrane pore size 1 μm
observedProperty: d10 (µm)
The response must be a number in µm with no trailing unit.

# input Recorded d10 for C#C[C@]1(O)CC[C@H]2[C@@H]3CCC4=CC(=O)CC[C@@H]4[C@H]3C(=C)C[C@@]21CC , please?
# output 3

###

# assay: Crystal size distribution (CSD) by laser diffraction (Mastersizer 2000, Fraunhofer model)
# Assay type: physicochemical
# assaySetup: Entry 8; antisolvent flow 45 l/h; 3-ketodesogestrel flow 20 l/h; Microdyn membrane pore size 1 μm
observedProperty: d90 (µm)
Express the result in µm but write the number alone.

# input State the recorded d90 for this entry: C#C[C@]1(O)CC[C@H]2[C@@H]3CCC4=CC(=O)CC[C@@H]4[C@H]3C(=C)C[C@@]21CC
# output 29

###

# assay: Crystal size distribution (CSD) by laser diffraction (Mastersizer 2000, Fraunhofer model)
# Assay type: physicochemical
# assaySetup: Entry 8; antisolvent flow 45 l/h; 3-ketodesogestrel flow 20 l/h; Microdyn membrane pore size 1 μm
observedProperty: d50 (µm)
Please give a number only; it is taken to be in µm.

# input Given the entry C#C[C@]1(O)CC[C@H]2[C@@H]3CCC4=CC(=O)CC[C@@H]4[C@H]3C(=C)C[C@@]21CC , report its measured d50.
# output 9
